System: 349418-098-R-PDC complex spheroid viability;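 further: spheroids exposed to compound for seven days before viability readout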
Test: Anticancer human tumor 349418-098-R-PDC patient-derived lung adenocarcinoma cell line growth inhibition [RAS]
Settings: curve of first compound; second compound 3.16 µM
observedProperty: IC50

For orientation, consider the following solved cases.
compound	observedProperty	observed
CC(C)NCC(C(=O)N1CCN(c2ncnc3c2C(C)CC3O)CC1)c1ccc(Cl)cc1 (stereo not given) + C#Cc1c(F)ccc2cc(O)cc(-c3ncc4c(N5CC6CCC(C5)N6)nc(OCC56CCCN5CC(F)C6)nc4c3F)c12	IC50	519 nM
CCN1CCN(Cc2ccc(Nc3ncc(F)c(-c4cc(F)c5nc(C)n(C(C)C)c5c4)n3)nc2)CC1 + C#Cc1c(F)ccc2cc(O)cc(-c3ncc4c(N5CC6CCC(C5)N6)nc(OCC56CCCN5CC(F)C6)nc4c3F)c12	IC50	10.3 nM
Cc1nc(N2CCC3(CC2)COC(C)C3N)c(CO)nc1Sc1ccnc(N)c1Cl (stereo not given) + C#Cc1c(F)ccc2cc(O)cc(-c3ncc4c(N5CC6CCC(C5)N6)nc(OCC56CCCN5CC(F)C6)nc4c3F)c12	IC50	> 10000 nM
CC(Nc1ccc2c(c1)OCCn1cc(N3C(=O)OCC3C(F)F)nc1-2)C(N)=O (stereo not given) + C#Cc1c(F)ccc2cc(O)cc(-c3ncc4c(N5CC6CCC(C5)N6)nc(OCC56CCCN5CC(F)C6)nc4c3F)c12	IC50	71 nM

query: IC50 lookup needed for NC1c2ccccc2OC12CCN(c1cnc3c(N4CCCc5ncccc54)n[nH]c3n1)CC2 (stereo not given) + C#Cc1c(F)ccc2cc(O)cc(-c3ncc4c(N5CC6CCC(C5)N6)nc(OCC56CCCN5CC(F)C6)nc4c3F)c12 , thanks.
result: > 10000 nM
